# Tested on: 7G8
# assay_info: qHTS profiling for inhibitors of Plasmodium falciparum proliferation (AID 504749); also: nearly all actives have a fitted effect of over 60% in size
# condition: P. falciparum in erythrocytes, SYBR Green DNA, 72 h; series mostly up to 28.7 µM
Records with an inconclusive call do not appear. Calls of active or inactive are those of the source. Calls follow the shape of the dose curve; as a rule, active = well fitted inhibition curve with a large enough effect; inconclusive = small, poorly fitted or top-dose-only effect; inactive = flat fitted curve, though single readings scatter.
Give your call using only these classes: 1 for active, 0 for inactive

| input_smiles | class |
| --- | --- |
| C[C@]12CC[C@@H]3c4ccc(OC(=O)c5ccccc5)cc4CC[C@H]3[C@@H]1CC[C@@H]2O | 1 |
| CC(C)CCC[C@@H](C)[C@H]1CC[C@H]2[C@@H]3CC=C4C[C@@H](O)CC[C@]4(C)[C@H]3CC[C@]12C | 0 |

// outcome(item) with item = COC1=C(OC)C(=O)C(C/C=C(\C)CC/C=C(\C)CC/C=C(\C)CC/C=C(\C)CC/C=C(\C)CC/C=C(\C)CC/C=C(\C)CC/C=C(\C)CC/C=C(\C)CCC=C(C)C)=C(C)C1=O
0

For this compound, state the assay outcome: CCCc1nc(C(C)(C)O)c(C(=O)OCc2oc(=O)oc2C)n1Cc1ccc(-c2ccccc2-c2nn[nH]n2)cc1
0
